- Measurement description: yeast display, Sf9 membrane polyspecificity reagent, FACS + sequencing; frameworks hold sequencing errors
Property name: polyreactivity (PSR sort gate)

Reference set, count: 4
1. QVQLVESGGGLVQAGGSLRLSCAASGFSFRYYTMGWYRPAPGKERELVARITWSGRITDYADSVKGRFTISRDNPKNTVYLQMNSLKPEDTAVSYCNAERRWAAYDYCGQGTQVTVSS; high polyreactivity
2. QVQLVESGGGLVQAGGSLRLSCAASGSIFSSNAMGWYIQAPGKERELVASIDGGPTTYADSVKGRFTISRDNAKNTVYLQMNSLKPEDTAVYYCNADSLDGPKFDYWGQGTQVTVSS; low polyreactivity
3. QVQLVDSGGGLVQAGGSLRLSCAASGITFRTYAMGWYRQEPGKERELVAAISGSSTSTYYADSVKGRFTISRDNAKNTVYLQMNSLKPEDTAVYYCAAGYRVSVYRYYYWGQGTQVTVSS; high polyreactivity
4. QVQLVESGGGLVQAGGSLRLSCAASGFIFRRNTMGWYRQAPGKERELVAVITWSGGRTYYADSVKGRFTISRDNAKNTVYLQMNSLKPEDTAVYDCTAEQWWSLDYWGQGTQVTVSS; low polyreactivity

Next item in the queue.
Reported polyreactivity (PSR sort gate) for QVQLVESGGGLVQAGGSLRLSCAASGRTYYDYAKGCYRQAPGKEREFVSAITDRDASTSYADSVKGRFTISRDNAKTTVYLQMNSLKPYDTAVYYCAADEYWYKPYVGELYAYVYWGEGTQVTVSS : what is it? low polyreactivity

* * *

- Measurement description: yeast display, Sf9 membrane polyspecificity reagent, FACS + sequencing; frameworks hold sequencing errors
Property name: polyreactivity (PSR sort gate)

1. QVQLVESGGGLVQAGGSLRLSCASSGSIFVHNDMGWYRQAPGKERELVARINTGGGTNYADSVKGRFTISRDNSKNTVYLQMNRLKPEDRAVYYCAAVLFVFYDEYGYWEYFSQYDYWGQGTKVTVSS; low polyreactivity
2. QVQLVESGGGLVQAGGSLRLSCAASGITFAYNAMGWYRQAPGKERELVARITSGGRTYYADSVKGRFTISRDNAKNTVYLQMKSLKPEDTAVYYCNAKEGSRYRKYDYWGPGTQVTVSS; low polyreactivity
3. QVQIVESAGGLVQAGGSLSLSCAASGITYVFYALGWYRQEPGKERELVSDMSWSGGITYYADSVMGRFTISRDNAKNTVYLQMNSLKPEDPAVYYCAATKRQTKYYGGTTDSIMYYWGQGTQVTVSS; low polyreactivity
4. QVQLVESGGGLVQAGGSLRLSCAASGFIFNTNAMGWYRQAPGKERELVAGISRSGVRTYYADSVKGRFTISRDNAKNTVFLQMNSLKPEDTAVYYCAATSLPRYYYWGQGTQVTVSS; low polyreactivity

* * *

- Measurement description: yeast display, Sf9 membrane polyspecificity reagent, FACS + sequencing; frameworks hold sequencing errors
Property name: polyreactivity (PSR sort gate)

Reference set, count: 6
1. QVQLVESGGGLVQAGGSLRLSCAASGITFQIYAMGWYRQAPGKERELVAAISRSGGSSTNYADSVKGRFTISRDNAKNTVYLQMYSLNPEDTAVYYCAAVSPYTGGANDYWGQGTQVTVSS; high polyreactivity
2. QVQLGESGGGLVQAGGSLRLICAASGSIFDQYAMGWSRPAPGKERELVAAIDTSGGSTYYADSVKGRFTISRDNAKYTVYLQMNSLKPEDTAVYYCAARGDGTFYEGYDYWGQGTQVTVSS; low polyreactivity
3. QVQLEESGGGLVQAGGSLRLSCAASGSTYYYYAMGWYRQAPGKERELVAAISRSGITYYADSVKGRFTISRDNAKNTVYLQMNSLKPEDTAVYYCAAGRRFDQSMYYWGQGTQVTVSS; high polyreactivity
4. QVQLVESGGGLVQAGGSLRLSCAASGRTFVGNAMGWYRQAPGKERELVADITWSGDITYYADSVKGRFTISRDNAKNTVYLQMHSLKPEDTAVYYCAADYHRRRTDYDYWGQGTQVTVSS; low polyreactivity
5. QVQLVESGGGLVQAGGSLRLSCAASGSTFYDYAMGWSRQAPGKERELVAAINGNGDSTYYADSVKGRFTISRDNAKITVYLLMNSLKPEDTAVYDCAAYLGWGYDYWGQGTQVTVSS; low polyreactivity
6. QVQLVESGGGLVQAGGSLRLSCAASGRTFPIYAMGWYRQAPGKERELVAAITSYRRGTTYYADSVKGRFTISRDNAKNTVYLQMNSLKPEDTAVYYCTARTLRGGEYKYWGQGTPVTVSS; high polyreactivity

Reported polyreactivity (PSR sort gate) for QVQLVESGGGLVQAGGSLRLSCAASGRIFRFYAMGWSSQAPGKERELVAAISTSGRTNYADSVKGRFTISRDNAKNTVYLQMNSLKPEDTAVYYCAAGTVLQGWSGAYGYWGQGTQVTVSS : what is it? high polyreactivity

Repeat with QVQLVESGGGLVQAGGSLRLSFAASGRTFYIYAMGLYRQDPGKEREMVAAITYGGGRTFYADSVKGRFTISRDNAKYTVYLQMNSLKPEDTAVYYCAKTDTYPRYGRGYDYWGQGTQVTVSS high polyreactivity

Repeat with QVQLVESGGGLVQAGGSLRLSCAASGNIFSGNAMGWYRQAPGKERELVAAISWSGGSTYYADSVKGRFTISRDNAKNTVYLQMNSLKPEDTAVYYCNKDLYADGQYNYDYWGQGTQVTVSS low polyreactivity

Repeat with QVQLVESGGRLVQAGGSLRLSCAASGSTFSPYTMGCYRQAPGKERELVAGISKSGGRTYYADSVKGRFTISRDNAKNTVYLQMNCLKREVTAVYYCATRSTTDFYCGQGTQVTVSS high polyreactivity
